// reported phage ELISA signal OD450 per item
- Subject of test: T1, 5-Helix (HIV-1 group M subtype B, HXB2 (gp41 …, stabilised))
- T1 construct: also called designed protein based on HIV-1 gp41
- Test name: ELISA
- Measurement context: one partner purified
// note: answer is a bare numeric in OD450

A selection of reference data follows.
{"columns": ["Binder", "Value unit", "Recorded value"],
 "data": [
  ["16B7 bivalent scFv on phage (scFv, V domains shown) VH: QVQLVQSGAEVRKPGASVKVSCKASGDTFSSYAISWVRQAPGQGLEWMGGIIPIFGTANYAQAFQGRVTITANESTSTAYMELSSLRSEDTAIYYCARDNPTLLGSDYWGAGTLVTVSS VL: DIQMTQSPSTLSASIGDRVTITCRASENILRLLAWYQQKPGKAPKLLIYYASSLASGAPSRFSGSGSGTDFTLTISSLQPDDFATYYCQQRADYPYTFGGGTKLEIK", "OD450", 3],
  ["25C6 bivalent scFv on phage (scFv, V domains shown) VH: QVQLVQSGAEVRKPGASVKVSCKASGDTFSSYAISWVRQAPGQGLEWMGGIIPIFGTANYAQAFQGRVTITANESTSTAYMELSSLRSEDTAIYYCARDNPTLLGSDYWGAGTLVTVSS VL: DIQMTQSPSTLSASIGDRVTITCRASENISSRLAWYQQKPGKAPKLLISNAYHLASGAPSRFSGSGSGTDFTLTISSLQPDDFATYYCQQRSNYPHTFGGGTKLEIK", "OD450", 1.8]
]}

// returns reported phage ELISA signal OD450 for input 16D10 bivalent scFv on phage (scFv, V domains shown) VH: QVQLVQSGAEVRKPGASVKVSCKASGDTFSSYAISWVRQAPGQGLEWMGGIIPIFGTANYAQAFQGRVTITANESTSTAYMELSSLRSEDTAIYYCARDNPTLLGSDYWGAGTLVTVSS VL: DIQMTQSPSTLSASIGDRVTITCRASENIRGSLAWYQQKPGKAPKLLIYRASRLASGAPSRFSGSGSGTDFTLTISSLQPDDFATYYCQQHSDYPHTFGGGTKLEIK
3
